Every entry's value here was drawn from ChEMBL document CHEMBL5724796.

# TEST_TARGET: Peregrin (Homo sapiens)
# RUN_CONDITIONS: Compound concentration 20.0 uM
Residues, ends and D or L forms follow the SMILES beside them. *: point of attachment. Cbz = O=C(OCc1ccccc1)*
Rule: ΔTm of -0.4 °C or more gives Criterion met; anything lower gives Criterion not met.

{"columns": ["COMPOUND", "TEST_TARGET", "CATEGORY_LABEL"],
 "data": [
  ["CC(=O)Nc1ccc(OC[C@](C)(O)C(=O)Nc2ccc([N+](=O)[O-])c(C(F)(F)F)c2)cc1", "Peregrin (Homo sapiens)", "Criterion met"],
  ["CN1CCN(c2cc(C(=O)Nc3ncc(SCc4cccc(C(F)(F)F)c4)s3)ccn2)CC1", "Peregrin (Homo sapiens)", "Criterion not met"],
  ["OC[C@H]1O[C@@H](c2ccc(Cl)c(Cc3ccc(O[C@H]4CCOC4)cc3)c2)[C@H](O)[C@@H](O)[C@@H]1O", "Peregrin (Homo sapiens)", "Criterion met"],
  ["CCS(=O)(=O)N1CCC([C@@H](C)n2c(C)c(C(=O)NCc3c(OC)cc(C)[nH]c3=O)c3ccccc32)CC1", "Peregrin (Homo sapiens)", "Criterion not met"],
  ["CNCCN(C)Cc1cn[nH]c1-c1ccc(OC2CC(OCCC3CCOCC3)C2)cc1 (stereo not drawn)", "Peregrin (Homo sapiens)", "Criterion not met"],
  ["C[C@H](CN[C@@H](C(=O)Nc1ccc(-c2cnn(C)c2)cn1)c1ccccc1)c1ccc(C#N)cc1", "Peregrin (Homo sapiens)", "Criterion not met"],
  ["Cn1ncc(-c2nn(C)c3ncnc(N4CCC4)c23)c1-c1ccc(C(F)(F)F)cc1", "Peregrin (Homo sapiens)", "Criterion met"],
  ["C=C(C)[C@@H](CC=C(C)C)C[C@@]12C[C@@H](CC=C(C)C)C(C)(C)[C@@](CC=C(C)C)(C(=O)C(C(=O)c3ccc(O)c(O)c3)=C1O)C2=O", "Peregrin (Homo sapiens)", "Criterion not met"],
  ["Cc1cc(C(=O)CN2CCC(O)CC2)c(C)n1-c1ccc(C#N)cc1", "Peregrin (Homo sapiens)", "Criterion met"],
  ["N[C@@H](CCCCB(O)O)C(=O)O", "Peregrin (Homo sapiens)", "Criterion met"],
  ["Cn1nc2c(=O)n(CC3(O)CCN(C(=O)C[C@H](c4ccccc4)C(F)(F)F)CC3)cnc2c1-c1ccc(CN)cc1", "Peregrin (Homo sapiens)", "Criterion met"],
  ["O=C(NCCCc1ccccc1)c1cccc(-c2cc(O)c3ncccc3c2)c1", "Peregrin (Homo sapiens)", "Criterion met"],
  ["O=C(NCCCCc1ccccc1)n1c(=O)oc2cc(-c3ccc(F)cc3)ccc21", "Peregrin (Homo sapiens)", "Criterion met"],
  ["CN(CC[C@@H](Oc1ccc(-c2ccccc2)cc1)c1ccc(F)cc1)CC(=O)O", "Peregrin (Homo sapiens)", "Criterion met"],
  ["O=CC1CCCN1C(=O)C1CCCN1C(=O)OCc1ccccc1 (stereo not drawn) (Cbz-Pro-Pro-aldehyde; configuration not given here)", "Peregrin (Homo sapiens)", "Criterion not met"],
  ["Cc1ccc(F)c2cc(C(=O)N[C@@H]3CCC[C@H](N4CC[C@H](N(C)S(C)(=O)=O)C4)C3)[nH]c12", "Peregrin (Homo sapiens)", "Criterion met"],
  ["COc1ccc2c(c1)OC(C)(C)C(c1ccccc1)C2c1ccc(OCCN2CCCC2)cc1 (stereo not drawn)", "Peregrin (Homo sapiens)", "Criterion not met"],
  ["O=C(CCCCCCC(=O)Nc1ccc([C@H]2O[C@@H](CSc3nc(-c4ccccc4)c(-c4ccccc4)o3)C[C@@H](c3ccc(CO)cc3)O2)cc1)NO", "Peregrin (Homo sapiens)", "Criterion met"],
  ["CNC[C@@H](O)COc1ccc(Cl)c(-c2nc(-c3c(C)noc3C)c(C)c(N3CC4(CCN(C(=O)OC)CC4)C3)n2)c1", "Peregrin (Homo sapiens)", "Criterion not met"],
  ["Cc1ccc(C(=O)Nc2ccc(S(=O)(=O)O)c3cc(S(=O)(=O)O)cc(S(=O)(=O)O)c23)cc1NC(=O)c1cccc(NC(=O)Nc2cccc(C(=O)Nc3cc(C(=O)Nc4ccc(S(=O)(=O)O)c5cc(S(=O)(=O)O)cc(S(=O)(=O)O)c45)ccc3C)c2)c1", "Peregrin (Homo sapiens)", "Criterion not met"],
  ["CC(C)(C)C1CCN(C(=O)n2ncc(C(O)(c3ccccc3)c3ccccc3)n2)CC1", "Peregrin (Homo sapiens)", "Criterion not met"],
  ["Cc1ncsc1-c1ccc([C@H](C)NC(=O)[C@@H]2C[C@@H](O)CN2C(=O)[C@@H](NC(=O)CNC(=O)c2ccc(F)c(-c3ccc(N4C[C@@H](C)N(C)[C@@H](C)C4)c(NC(=O)c4c[nH]c(=O)cc4C(F)(F)F)c3)c2)C(C)(C)C)cc1", "Peregrin (Homo sapiens)", "Criterion met"],
  ["CNc1cc(-c2cccc(Cl)c2Cl)nc(N)n1", "Peregrin (Homo sapiens)", "Criterion met"],
  ["COc1cn(-c2ccc(-n3cccn3)cc2F)nc(-c2ccnn2-c2ccccc2)c1=O", "Peregrin (Homo sapiens)", "Criterion met"],
  ["Cc1cc(C)nc(SCC(=O)Nc2ncc(Cc3cccc4ccccc34)s2)n1", "Peregrin (Homo sapiens)", "Criterion met"],
  ["N[C@H](C(=O)O)[C@H](OCc1cccc(NC(=O)c2ccc(C(F)(F)F)cc2)c1)C(=O)O", "Peregrin (Homo sapiens)", "Criterion met"],
  ["COc1cc(Oc2ccnc3cc(OC)c(OC)cc23)ccc1NC(=O)NC(C)c1nccs1 (stereo not drawn)", "Peregrin (Homo sapiens)", "Criterion not met"],
  ["CC1C(C#N)=C(N)OC2=C1C(=O)CC(c1cccc3ccccc13)C2 (stereo not drawn)", "Peregrin (Homo sapiens)", "Criterion met"],
  ["CC(C)=C[C@H]1C[C@H](C)[C@]2(CC[C@]3(C)C[C@H]4[C@H](C(=O)C[C@@]4(C)O)/C(C=O)=C\\C[C@H]32)O1", "Peregrin (Homo sapiens)", "Criterion not met"],
  ["Cn1ncnc1[C@H]1C2=c3c(cc(F)cc3=N[C@@H]1c1ccc(F)cc1)C(=O)NN2", "Peregrin (Homo sapiens)", "Criterion met"],
  ["CC(C)(CNC(=O)c1cccc(-c2noc(C(F)(F)F)n2)c1)c1coc(-c2ccccc2)n1", "Peregrin (Homo sapiens)", "Criterion not met"],
  ["CN(C)Cc1ccc(-c2nc3cccc4c3n2CCNC4=O)cc1", "Peregrin (Homo sapiens)", "Criterion met"],
  ["CCCCCCNC(=O)n1cc(F)c(=O)[nH]c1=O", "Peregrin (Homo sapiens)", "Criterion met"]
]}

----------
# maps each entry to its ΔTm
# TEST_TARGET: Peregrin (Homo sapiens) (UniProt P55201)
# Sequence (P55201 whole entry): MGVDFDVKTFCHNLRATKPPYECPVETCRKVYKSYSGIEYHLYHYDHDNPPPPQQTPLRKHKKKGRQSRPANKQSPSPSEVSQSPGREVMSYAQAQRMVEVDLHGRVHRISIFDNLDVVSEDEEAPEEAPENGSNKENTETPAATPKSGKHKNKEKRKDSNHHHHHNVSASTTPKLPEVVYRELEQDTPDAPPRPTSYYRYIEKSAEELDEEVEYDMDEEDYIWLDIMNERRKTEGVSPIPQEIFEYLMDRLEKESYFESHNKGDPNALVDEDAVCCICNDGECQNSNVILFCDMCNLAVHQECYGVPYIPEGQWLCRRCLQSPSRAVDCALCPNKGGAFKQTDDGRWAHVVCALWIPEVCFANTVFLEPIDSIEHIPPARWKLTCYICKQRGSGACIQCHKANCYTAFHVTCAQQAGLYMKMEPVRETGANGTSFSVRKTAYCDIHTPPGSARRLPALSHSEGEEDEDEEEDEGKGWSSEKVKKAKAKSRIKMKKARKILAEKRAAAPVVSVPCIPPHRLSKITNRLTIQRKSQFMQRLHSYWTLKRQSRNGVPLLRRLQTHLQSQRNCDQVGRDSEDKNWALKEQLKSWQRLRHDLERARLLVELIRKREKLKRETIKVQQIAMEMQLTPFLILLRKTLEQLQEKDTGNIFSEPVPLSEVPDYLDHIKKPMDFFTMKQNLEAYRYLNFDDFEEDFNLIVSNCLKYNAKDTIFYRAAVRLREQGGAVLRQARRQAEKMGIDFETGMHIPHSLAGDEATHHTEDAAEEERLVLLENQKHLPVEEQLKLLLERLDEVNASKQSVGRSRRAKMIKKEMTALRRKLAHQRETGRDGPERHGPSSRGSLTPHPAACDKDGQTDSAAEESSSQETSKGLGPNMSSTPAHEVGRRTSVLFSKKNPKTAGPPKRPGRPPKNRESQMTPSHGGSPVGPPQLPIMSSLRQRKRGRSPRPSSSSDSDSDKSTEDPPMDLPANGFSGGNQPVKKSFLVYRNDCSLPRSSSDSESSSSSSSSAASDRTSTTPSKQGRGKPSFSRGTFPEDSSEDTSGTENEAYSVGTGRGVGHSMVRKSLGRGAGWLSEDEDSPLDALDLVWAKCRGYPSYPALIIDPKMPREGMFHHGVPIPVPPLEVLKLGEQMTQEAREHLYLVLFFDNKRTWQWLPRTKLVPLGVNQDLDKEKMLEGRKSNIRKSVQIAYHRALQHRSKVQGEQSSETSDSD
# RUN_CONDITIONS: Compound concentration 20.0 uM
Residues, ends and D or L forms follow the SMILES beside them. *: point of attachment. Cbz = O=C(OCc1ccccc1)*; Boc = CC(C)(C)OC(=O)*; CH2F = FC*
MEASURED_PROPERTY: ΔTm (°C)

{"columns": ["COMPOUND", "READOUT_UNIT", "MEAS_VALUE"],
 "data": [
  ["CNC(=O)c1cc(C(=O)NC2CC2)cn(Cc2ccccc2)c1=O", "°C", 0.73],
  ["Cc1nc(F)ccc1-c1cc(Cn2ccn(C)c2=N)cc(C(=O)NCc2ccc(Cl)c(Cl)c2)c1", "°C", -1.3],
  ["CCCOC(=O)N1CCN(C(=O)c2ccc3c(Cl)cc(-c4ccc(C5(N)CC5)cc4)nc3c2)C[C@H]1C", "°C", -1.27],
  ["COC(=O)CC[C@H](NC(=O)[C@H](C)NC(=O)OCc1ccccc1)C(=O)N[C@H](C(=O)N[C@@H](CC(=O)OC)C(=O)CF)C(C)C (Cbz-AE(OMe)VD(OMe)-CH2F)", "°C", -0.82],
  ["COc1ccccc1S(=O)(=O)Nc1ccc2c(c1)CN(C)C(=O)N2", "°C", 1.9],
  ["CCCOc1ccc(NC(=O)CN2CCN(C)CC2)cc1-c1nc(CC)c(CC)c(=O)[nH]1", "°C", 1.24],
  ["C=Cc1cc(C(=O)Nc2ccc(C(=N)N)cc2)c(-c2ccc(C(=O)NCC3CC3)nc2C(=O)O)cc1OC", "°C", 2.91],
  ["O=C(NNc1ccccn1)c1ccccn1", "°C", 0.74],
  ["Cn1cc(-c2ccncc2)c(-c2ccc(OCc3ccc4ccccc4n3)cc2)n1", "°C", 0.25],
  ["N=C(N)N/N=C/c1cccc(Cl)c1Cl", "°C", -0.71],
  ["Cc1nccn1CC1CCc2c(c3ccccc3n2C)C1=O (configuration not stated)", "°C", 0.91],
  ["COc1ccc2nc3[nH]nc(C)c3c(NCCOCCO)c2c1", "°C", -1.14],
  ["COc1cc(C(C)C)c2c(c1)S(=O)(=O)N(COc1cc(=O)n3cccc(OCCN4CCCCC4)c3n1)C2=O", "°C", -1.13],
  ["O=C(O)CCNc1cc(N2CCc3ccccc3CC2)nc(-c2cccnc2)n1", "°C", -1.01],
  ["O=C(O)/C(S)=C/c1c[nH]c2ccc(F)cc12", "°C", -0.77],
  ["CC(C)[C@H](NC(=O)[C@H](CCC(=O)O)NC(=O)[C@H](C)NC(=O)OC(C)(C)C)C(=O)N[C@H](C=O)CC(=O)O (Boc-AEVD-aldehyde)", "°C", -1.27],
  ["CCCc1nc(C)c2c(C)nc3ccc(OC)nc3n12", "°C", -0.07],
  ["Cn1c(=O)cc(N2CCC[C@@H](N)C2)n(Cc2cc(F)ccc2C#N)c1=O", "°C", 0.76],
  ["N[C@@H](CC(=O)Nc1ccc(Oc2cc(F)c(F)cc2Br)cc1)C(=O)O", "°C", 0.59],
  ["CC(C)c1cnc(CSc2cnc(NC(=O)C3CCNCC3)s2)o1", "°C", -1.67],
  ["COc1cc2/c(=N/c3ccc(Br)cc3F)nc[nH]c2cc1OCC1CCN(C)CC1", "°C", -0.84],
  ["C[C@H]1CO[C@@H]2Cn3cc(C(=O)NCc4ccc(F)cc4F)c(=O)c(O)c3C(=O)N12", "°C", 2.22],
  ["CS(=O)(=O)N1CCN(C(=O)c2cnc3ccc(F)cc3c2-c2ccc(C3(C#N)CC3)cc2)CC1", "°C", 0.38],
  ["CC(=O)NCC(=O)N1CCC[C@@H]1B(O)O", "°C", 2.29],
  ["Nc1cc2c3c(c1)C(c1ccccc1)=N[C@@H](NC(=O)c1cccnc1)C(=O)N3CC2", "°C", 0.71],
  ["CCN(CCN(C)C)C(=O)CNCc1cc(C(N)=O)ccn1", "°C", -1.31],
  ["Cc1cc(Cl)cc(-c2c3sc(CN4C(=O)C5C(C4=O)C5(C)C)cc3nn2C)c1OC1CCNCC1 (configuration not stated)", "°C", 0.52],
  ["Nc1c[nH]c(=O)c2cc(-c3ccccc3)sc12", "°C", -1.11],
  ["CC(=O)C(=Cc1cc(O)c(O)c([N+](=O)[O-])c1)C(C)=O", "°C", 0.33],
  ["O=C(N(CCc1ccccc1)C1CCCCC1)n1ncc(-c2ccc(OC(F)(F)F)cc2)n1", "°C", 1.62],
  ["CCN(c1cc(-c2ccc(CN3CCOCC3)cc2)cc(C(=O)NCc2c(C)cc(C)[nH]c2=O)c1C)C1CCOCC1", "°C", -1.14],
  ["COc1cc(O)cc(CN2CCc3c(cc(Cn4ccn(C)c4=N)cc3-c3ccc(F)cc3C)C2=O)c1", "°C", -1.15],
  ["Nc1ccc(-c2cccs2)cc1NC(=O)c1ccc2nc(N3CCNCC3)ccc2c1", "°C", 0.96],
  ["COC(=O)CC[C@H](NC(=O)[C@H](Cc1c[nH]c2ccccc12)NC(=O)OCc1ccccc1)C(=O)N[C@@H](Cc1cnc[nH]1)C(=O)N[C@@H](CC(=O)OC)C(=O)CF (Cbz-WE(OMe)HD(OMe)-CH2F)", "°C", -1.05],
  ["Cc1ncsc1-c1ccc(CNC(=O)[C@@H]2C[C@@H](O)CN2C(=O)[C@@H](NC(=O)COCCOCCOc2ccc(-c3ccc4ncnc(Nc5ccc(OCc6cccc(F)c6)c(Cl)c5)c4c3)cc2)C(C)(C)C)cc1", "°C", 0],
  ["CCc1c(C)nc(-c2ccc(Cl)s2)nc1Nc1ccc(CC(=O)O)cc1", "°C", 1.24],
  ["CCn1nc(C2CC2)cc1Nc1nc(C(=O)NC)nc2[nH]c3cc(-c4c(C)noc4C)c(OC)cc3c12", "°C", 0.68]
]}
